Reference source for all entries: BindingDB's records for doi:10.1021/bi990204w

Sequence of the target: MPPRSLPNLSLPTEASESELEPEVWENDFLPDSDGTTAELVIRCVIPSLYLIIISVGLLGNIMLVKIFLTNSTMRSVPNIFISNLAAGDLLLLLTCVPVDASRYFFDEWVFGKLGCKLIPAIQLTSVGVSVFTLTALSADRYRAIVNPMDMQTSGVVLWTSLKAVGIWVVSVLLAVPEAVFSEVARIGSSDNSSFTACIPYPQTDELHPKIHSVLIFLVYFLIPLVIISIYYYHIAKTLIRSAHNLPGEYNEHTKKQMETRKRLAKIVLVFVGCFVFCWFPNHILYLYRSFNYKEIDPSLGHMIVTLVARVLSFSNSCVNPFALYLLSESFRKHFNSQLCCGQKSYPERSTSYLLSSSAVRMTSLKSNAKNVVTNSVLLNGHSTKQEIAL
pKi: −log10 of the molar value. Where a SMILES comes first, the peptide text is derived from it. Bridges are numbered along the chain shown (N, C = ends). [ ]: non-standard residue; d: D form. The star is where a group is joined. dProψ(CH2NH)PheNH2 = NC(=O)[C@H](Cc1ccccc1)NC[C@H]1CCCN1*; X1 = CC(C)C[C@@H](CN[C@@H](CC(C)C)C(N)=O)N*; 2Nal = N[C@@H](Cc1ccc2ccccc2c1)C(=O)O; d2Nal = N[C@H](Cc1ccc2ccccc2c1)C(=O)O; Hydrocinnamoyl = O=C(CCc1ccccc1)*; pGlu = O=C1CC[C@@H](C(=O)O)N1
RESULT TYPE: pKi

Sample records with pKi:
compound="CSCC[C@H](NC(=O)[C@H](CC(C)C)NC(=O)[C@H](Cc1cnc[nH]1)NC(=O)CNC(=O)[C@@H](NC(=O)[C@H](C)NC(=O)[C@H](Cc1c[nH]c2ccccc12)NC(=O)[C@H](CCC(N)=O)NC(=O)[C@H](N)Cc1ccccc1)C(C)C)C(N)=O [DPhe6-Bn[6-14)]" value_reported=7.85
compound="CC(C)[C@@H]1NC(=O)[C@H](CCCCN)NC(=O)[C@@H](Cc2c[nH]c3ccccc23)NC(=O)[C@H](Cc2ccc(O)cc2)NC(=O)[C@H](NC(=O)[C@H](N)Cc2ccc3ccccc3c2)CSSC[C@@H](C(=O)N[C@@H](Cc2ccc3ccccc3c2)C(N)=O)NC1=O (H-[d2Nal][dC]Y[dW]KVC[2Nal]-NH2; disulfide 2-7)" value_reported=6.66
compound="CC(C)C[C@H](NC(=O)[C@H](Cc1cnc[nH]1)NC(=O)CNC(=O)[C@@H](NC(=O)[C@H](C)NC(=O)[C@H](Cc1c[nH]c2ccccc12)NC(=O)[C@H](CCC(N)=O)NC(=O)[C@H](N)Cc1ccccc1)C(C)C)C(=O)NN(C)C [DPhe6-Bn(6-13)NHN(ME)2]" value_reported="< 5.00"
compound="CC(C)C[C@@H](CN[C@@H](CC(C)C)C(N)=O)NC(=O)[C@H](Cc1cnc[nH]1)NC(=O)CNC(=O)[C@@H](NC(=O)[C@H](C)NC(=O)[C@H](Cc1c[nH]c2ccccc12)NC(=O)[C@H](CCC(N)=O)NC(=O)[C@H](CC(N)=O)NC(=O)CNC(=O)[C@H](CC(C)C)NC(=O)[C@H](CCCN=C(N)N)NC(=O)[C@H](CCC(N)=O)NC(=O)[C@@H]1CCC(=O)N1)C(C)C [Leu13,Psi(CH2NH),Leu14-BN] ([pGlu]QRLGNQWAVGH-X1)" value_reported="< 5.00"
compound="CSCC[C@H](NC(=O)[C@H](CC(C)C)NC(=O)[C@H](Cc1cnc[nH]1)NC(=O)CNC(=O)[C@@H](NC(=O)[C@H](C)NC(=O)[C@H](Cc1c[nH]c2ccccc12)NC(=O)[C@H](Cc1cnc[nH]1)NC(=O)[C@H](CC(N)=O)NC(=O)CN)C(C)C)C(N)=O [GRP-10,frog]" value_reported="< 5.00"

input: # query: pKi of entry CCCCCCNC(=O)[C@H](CC(C)C)NC(=O)[C@H](Cc1cnc[nH]1)NC(=O)CNC(=O)[C@@H](NC(=O)[C@H](C)NC(=O)[C@H](Cc1c[nH]c2ccccc12)NC(=O)[C@H](CCC(N)=O)NC(=O)[C@H](N)Cc1ccccc1)C(C)C [DPhe6-Bn(6-13)hexylamide]
output: < 5.00

input: Bench note: what pKi did CC(C)[C@H](NC(=O)[C@H](C)NC(=O)[C@H](Cc1c[nH]c2ccccc12)NC(=O)[C@H](Cc1cnc[nH]1)NC(=O)CCc1ccccc1)C(=O)N[C@H](C)C(=O)N[C@@H](Cc1cnc[nH]1)C(=O)N1CCC[C@@H]1CN[C@@H](Cc1ccccc1)C(N)=O [CAS_l] (Hydrocinnamoyl-HWAV[dA]H-{dProψ(CH2NH)PheNH2}) show?
output: < 5.00
